Listed binders paired with reported pKd
- Study Target: T1, His-tagged ECD of cynomolgus monkey 4-1BB (cynomolgus monkey, UniProt Q07011 24-186 (human entry))
- T1 construct: also called cynomolgus 4-1BB; cyno 4-1BB; not shown: His tag
- T1 chain: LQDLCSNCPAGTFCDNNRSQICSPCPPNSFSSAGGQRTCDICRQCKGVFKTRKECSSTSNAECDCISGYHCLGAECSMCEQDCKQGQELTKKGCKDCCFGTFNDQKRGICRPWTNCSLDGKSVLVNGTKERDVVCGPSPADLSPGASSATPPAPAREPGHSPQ
- Assay Protocol: SPR (Biacore), captured antibody, His-tagged ECD analyte
pKd: −log10 of the molar value.
Quantity Name: pKd

Binder	Quantity Name	Value Measured
hu107-1-hIgG4 (antibody, V domains shown, Human IgG4 constant region with the S228P mutation; also called hu107.1x.1x) VH: EVQLVQSGAEVKKPGSSVKVSCKASDYTFNDYWVSWVRQAPGQGLEWIGEIYPNSGATNFNGKFRGRATLTVDNSASTAYMELSSLRSEDTAVYYCTREYTRDWFAYWGQGTLVTVSS VL: DVVLTQSPLSLPVTLGQPASISCRSSQSLLDSDGNTYLYWFQQRPGQSPRRLIYLVSNLGSGVPDRFSGSGSGTDFTLKISRVEAEDVGVYYCMQPTHAPYTFGQGTKLEIK	pKd	9.66
hu106-4-hIgG4 (antibody, V domains shown, Human IgG4 constant region with the S228P mutation; also called hu106.1x.3x) VH: EVQLVQSGAEVKKPGSSVKVSCKASGYTFTSYYIYWVRQAPGQGLEWIGNIWPGNGGTFYGEKFMGRATFTADTSTSTAYMELSSLRSEDTAVYYCARRPDYSGDDYFDYWGQGTLVTVSS VL: SVELTQPPSVSVSPGQTARITCKLNSGNIGSYYVHWYQQKPGQAPVTMIYRDDKRPDGIPERFSGSSDSSSNSAFLTISGVQAEDEADYYCHSYDSTITPVFGGGTKLTVL	pKd	6.74
hu107-1-hIgG1 (antibody, V domains shown, 312 is written here; Human IgG1 constant region bearing L234A and L235A; also called hu107.1x.1x) VH: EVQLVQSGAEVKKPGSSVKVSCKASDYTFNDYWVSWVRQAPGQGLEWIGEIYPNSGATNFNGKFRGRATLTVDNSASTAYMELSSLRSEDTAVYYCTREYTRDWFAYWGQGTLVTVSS VL: DVVLTQSPLSLPVTLGQPASISCRSSQSLLDSDGNTYLYWFQQRPGQSPRRLIYLVSNLGSGVPDRFSGSGSGTDFTLKISRVEAEDVGVYYCMQPTHAPYTFGQGTKLEIKR	pKd	9.89
hu106-1-hIgG1 (antibody, V domains shown, 310 is written here; Human IgG1 constant region bearing L234A and L235A; also called hu106.1x.1x) VH: EVQLVQSGAEVKKPGSSVKVSCKASGYTFTSYYIYWVRQAPGQGLEWIGNIWPGNGGTFYGEKFMGRATFTADTSTSTAYMELSSLRSEDTAVYYCARRPDYSGDDYFDYWGQGTLVTVSS VL: NVMLTQPHSVSESPGKTVTISCKLNSGNIGSYYVHWYQQRPGSSPTTMIYRDDKRPDGVPDRFSGSIDSSSNSASLTISGLKTEDEADYYCHSYDSTITPVFGGGTKLTVLG	pKd	6.77
